# assay-info: Total plasma concentration in Wistar Han rat at 1 to 2 mg/kg, iv infused for 10 to 20 hrs by LC-MS/MS analysis
# assay-conditions: in vivo
measure-name: Cp (ng/mL)

INSERT INTO results (compound, measure_name, unit_abbreviation, result) VALUES
  ('CC(C)(CC1Cc2ccccc2C1)NC[C@@H](O)COc1cc(C2CC3CC2C2C(C(=O)O)C32)ccc1C#N (some centres undefined)', 'Cp', 'ng/mL', 54),
  ('CN(C)C(=O)C(CCN1CCC(O)(c2ccc(Cl)cc2)CC1)(c1ccccc1)c1ccccc1 [LOPERAMIDE]', 'Cp', 'ng/mL', 74);

[a] COc1ccc(Cc2cc([C@@H]3OC4(COC4)[C@@H](O)[C@H](O)[C@H]3O)ccc2C)cc1
[b] C[C@H](CN1CCOCC1)n1/c(=N\C(N)=O)[nH]c2cc(/C=C3\c4ccccc4COc4cc(F)ccc43)ccc21
Which entry has a larger number for Cp, a or b ? Please respond with the label that marks your chosen entry.
b
